# testTarget: TrCel7A (Trichoderma reesei, UniProt P62694)
# Construct: native enzyme purified from culture filtrate of T. reesei QM 9414; secreted, signal peptide removed; about 50 kDa
# Sequence (P62694 18-513): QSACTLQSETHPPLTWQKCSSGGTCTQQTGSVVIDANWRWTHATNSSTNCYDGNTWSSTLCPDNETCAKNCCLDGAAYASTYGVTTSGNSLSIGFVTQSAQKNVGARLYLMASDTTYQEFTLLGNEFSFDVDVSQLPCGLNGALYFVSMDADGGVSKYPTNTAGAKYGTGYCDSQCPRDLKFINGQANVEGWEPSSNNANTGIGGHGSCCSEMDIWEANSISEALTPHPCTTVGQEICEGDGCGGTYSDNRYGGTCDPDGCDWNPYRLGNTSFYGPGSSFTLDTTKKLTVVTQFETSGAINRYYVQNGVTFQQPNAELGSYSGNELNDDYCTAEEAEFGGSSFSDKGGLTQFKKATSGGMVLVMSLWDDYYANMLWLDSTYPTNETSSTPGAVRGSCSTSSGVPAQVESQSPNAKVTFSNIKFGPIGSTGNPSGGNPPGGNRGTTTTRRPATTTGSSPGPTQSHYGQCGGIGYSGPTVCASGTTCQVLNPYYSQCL
# testName: inhibition of 4-methylumbelliferyl-beta-lactoside hydrolysis, fluorescence, initial rates
# protocolConditions: 5 μM MUL, 10 nM enzyme, 50 mM sodium acetate pH 5.0, BSA 0.1 g/l, 35°C
endpoint: IC50
Please state the value followed by its unit.

Name the reported IC50 value associated with the compound OC[C@H]1O[C@@H](O[C@H]2[C@H](O)[C@@H](O)C(O)O[C@@H]2CO)[C@H](O)[C@@H](O)[C@@H]1O (stereo partly shown) [cellobiose]
36 µM
